These data points were gathered from the supplement of paper PMC11865577.

Each item that follows carries a reported pull-down binding Z-score.
# Test system: TO-3-N3 (biotin conjugate)
# ASSAY EXPLANATION: pull-down binding Z-score (relative to library population); higher = stronger binding
# CONDITION DETAILS: RNA library: Library-2
Give the value as a plain number.

Here are 3 sequences together with their reported answers.
Consider the sequence shown here: GCAGAGAAGACAGUGAGCUUGCCAGUUCUGGUUUCCAACACUUCCUUUCCUGCG [hsa-mir-3911] What is its recorded pull-down binding Z-score?
0.56

Also CUAUACAUUCUUUAAGAGUUUGUGUAG , if possible.
-0.365

Also UGGAGUUUUUUUUUCCUCCUG [hsa-mir-4329] , if possible.
0.315

Others:
Consider the sequence shown here: UUCUAAUGCCAAGAA [hsa-mir-1279] What is its recorded pull-down binding Z-score?
0.835

Also CGGUUGCUUGGUCAGCAAGUGCAUGUCAUGAUGGCAUGGGCUGGCUAACAAUCG [IAV_invivo_NA_6_Motif_7+IAV_invivo_NA_6_Motif_7] , if possible.
-0.929

Also CACGGUGUCUGCGGGAGGAGACCAUG [hsa-mir-4757] , if possible.
0.515

Also GGGUUUACAAACAAUUUGAUACUUAUAACCU [DMSMaPseq_invitro_SARS-CoV-2_Motif_347] , if possible.
-0.652

Also GCAAGUUGAAUCUGAUGAUUACAUAGCUACUAAUGGACCACUUAAAGUGGGUGGUAGUUGUGUUUUAAGCGGACACAAUCUUGC , if possible.
-0.696

---

# Tested on: TO-N3-2 (biotin conjugate)
# ASSAY EXPLANATION: pull-down binding Z-score (relative to library population); higher = stronger binding
# CONDITION DETAILS: RNA library: Library-2
Each item that follows carries a reported pull-down binding Z-score.
Give the value as a plain number.

Consider the sequence shown here: GCUGUGUUGAAUGAUUGGUGAGUUUGUUUGCUCAUUGAUUGAAUCACUGC [hsa-mir-3678] What is its recorded pull-down binding Z-score?
-0.307

Also CCAAGGAAAUUUUGG , if possible.
-0.948

Also GUCAGUCCCAAUCUGAAUCCCACCAAAAUAGGUGGUAGAGGGUUGC [hsa-mir-4290] , if possible.
0.752

Also GAAAAAUCCCUGUUAACUUUC [hsa-mir-6833] , if possible.
0.133

Also UUAAACACGCUUGUUAAACAACUUAGCUCCAAUUUUGGUGCAAUUUCAAGUGUUUUAA [SHAPE_invivo_SARS-CoV-2_Motif_457] , if possible.
-0.627

Others:
Consider the sequence shown here: UCUGAAGAAGUAGUGGAAAAUCCUACCAUACAGA [DMSMaPseq_invitro_SARS-CoV-2_Motif_122] What is its recorded pull-down binding Z-score?
0.514

Also CCUGCCACGUCAAAGGAGGCAGA [hsa-mir-3154] , if possible.
0.137

Also UCUUCUUUUGGAAGGAAGA [hsa-mir-3122] , if possible.
-1.53

Also GCUUGAAGUGGAGC [IAV_invivo_NS1_NEP_8_Motif_14+IAV_invivo_NS1_NEP_8_Motif_14] , if possible.
0.386

Also AGAAGACCU [hsa-mir-378g] , if possible.
0.244

---

# Test system: TO-N3-2 (biotin conjugate)
# ASSAY EXPLANATION: pull-down binding Z-score (relative to library population); higher = stronger binding
# CONDITION DETAILS: RNA library: Library-2
Each item that follows carries a reported pull-down binding Z-score.
Give the value as a plain number.

Consider the sequence shown here: AAAUUUACAAGAAUUU [SHAPE_invivo_SARS-CoV-2_Motif_380] What is its recorded pull-down binding Z-score?
-1.48

Also AGGACACAGGCUGGCACUGAGGUCCC [hsa-mir-6887] , if possible.
1.41

Also CUGCUCUCCCUGGCAGCAAG [hsa-mir-7109] , if possible.
0.6

Also GCCAGUCAGCGCUCACAUUAAGGCUGAC [hsa-mir-2277] , if possible.
0.0682

Others:
Consider the sequence shown here: UUGCUCACGGUAAGAAAAACAUGAGUAA [hsa-mir-8062] What is its recorded pull-down binding Z-score?
-0.388

Also GCAUACAGUCGCUACAGGAUUGGCAACUAUAAAUUAAACACAGACCAUUCCAGUAGCAGUGACAAUAUUGC [SHAPE_invivo_SARS-CoV-2_Motif_513] , if possible.
0.259

Also GGCUGCAGGCCCGGCCCCUCUC [hsa-mir-6787] , if possible.
1.59

Also CGAGUCUGAGCCUUUAAAAGCCACUCU [hsa-mir-1287] , if possible.
0.586

---

# System: TO-3-N3-2 (biotin conjugate)
# ASSAY EXPLANATION: pull-down binding Z-score (relative to library population); higher = stronger binding
# CONDITION DETAILS: RNA library: Library-2
QUANTITY: pull-down binding Z-score
Give the value as a plain number.

Consider the sequence shown here: CACAAGACUAGGCUUCCCUGUG [hsa-mir-3152] What is its recorded pull-down binding Z-score?
0.0303

Also GAGCUGGAAGGAGUGGGCCUGGCUC [hsa-mir-6847] , if possible.
0.387

Also GCGCUGCCAGAAACUGGCUUAGCGC [bulge-UU] , if possible.
-0.0172

Also CUGUUCAGGACUCCCAAAUUGUACAG [hsa-mir-199b] , if possible.
0.385

Also UGUGGUUGGGGCCAUGGCGGGUGGGCAGCCCAGCCUCUGAGCCUUCCU [hsa-mir-1238] , if possible.
1.74

Also GCUAAAUUGUUACAUAAACCUAUUGUUUGGCAUGUUAACAAUGC [SHAPE_invitro_SARS-CoV-2_Motif_124] , if possible.
-0.265

Also GCAGAGACAGAAGAAACAGCAAACUGUGACUCUUCUUCCUGC , if possible.
-0.128

Also UGGCAAUUCAGUAAAAAUGCUCA [hsa-mir-6715b] , if possible.
-0.14

Also UAAGGAAGGAAGUUCUGUUGAAUUAAAACACUUCUUCUUUG [SHAPE_invitro_SARS-CoV-2_Motif_269] , if possible.
-0.389

Also CUGCAGAUGCAG [IAV_invivo_HA_4_Motif_2+IAV_invivo_HA_4_Motif_2] , if possible.
-0.317

Others:
Consider the sequence shown here: AGCCUCCAAACCUGUAGACAGGGUCAUGCAGUACUAGGGGCGAG [hsa-mir-4478] What is its recorded pull-down binding Z-score?
0.175

Also GUCACAAAUUCAAAUAAAGUGAG [hsa-mir-4693] , if possible.
0.544

Also UUUUGCCAUUAAAAGUAAUGACAAAA [hsa-mir-548f-4] , if possible.
-0.56

Also UUCUUCCUGGAGUCGGGGAAAAG [hsa-mir-320e] , if possible.
-0.0301

Also GAUGAGUACGAACUUAUGUACUCAUU , if possible.
-0.473

Also GCUUGCUGUUCCUCUCAACAGUAGUCAGGAAGC [hsa-mir-129-1] , if possible.
-0.186

Also CCCAAUCAUGAAGGG [IAV_invivo_PB1_2_Motif_24+IAV_invivo_PB1_2_Motif_24] , if possible.
-0.407

Also UUGAGAACCAG [hsa-mir-4328] , if possible.
0.215

---

Each item that follows carries a reported pull-down binding Z-score.
# Test system: TO-3-N3 (biotin conjugate)
# ASSAY EXPLANATION: pull-down binding Z-score (relative to library population); higher = stronger binding
# CONDITION DETAILS: RNA library: Library-2
Give the value as a plain number.

Consider the sequence shown here: AUGAGGUUUAGAAGAGCUUUUGGUGAAUACAGUCAUGUAGUUGCCUUUAAUACUUUACUAUUCCUUAU What is its recorded pull-down binding Z-score?
-0.216

Also AGCUGGCUGAAGGGCAGAAGGGAACUGUCCUUCAGCCAGAG [hsa-mir-4487] , if possible.
-0.276

Also CAGGCAAUAACAGUUACACCGGAAGCCAAUAUGGAUCAAGAAUCCUUUGGUGGUGCAUCGUGUUGUCUG [SHAPE_invivo_SARS-CoV-2_Motif_250] , if possible.
0.944

---

# Test system: TO-3-N3-2 (biotin conjugate)
# ASSAY EXPLANATION: pull-down binding Z-score (relative to library population); higher = stronger binding
# CONDITION DETAILS: RNA library: Library-2
QUANTITY: pull-down binding Z-score

Here are 5 sequences together with their reported answers.
Consider the sequence shown here: GUUUCUAAAAAAAUAAAAAGUUAAAAAAAUUUAUGUUAACGUGUAAUGUGUUUACUAAUUUUUUUUUUUUUUUUUGGAGAC [hsa-mir-3908] What is its recorded pull-down binding Z-score?
0.349

Also GGGAUAUUUGCAUUAUACUUAUCC [hsa-mir-5009] , if possible.
0.015

Also GGCAGGGGGAGCUGCAGGGCUAUGGGAGGGGCCCCAGCGUCUGA [hsa-mir-1233-2_1233-1] , if possible.
2.98

Also UAGGGCGCGGAGGGCGGACCGGGAA [hsa-mir-638] , if possible.
6.57

Also UGGAGGUGAUGGGGGCAGGGGAUGGGUCUCACCCUCCC [hsa-mir-5088] , if possible.
2.93

Others:
Consider the sequence shown here: GUACUUGGUAGUUUAGCUGCCACAGUAC What is its recorded pull-down binding Z-score?
-0.291

Also UCUUUCAUUUUGGAUUUGACU [hsa-mir-766] , if possible.
-0.03

Also GAACUCUACUAAUGUCACUAUUGCAACCUACUGUACUGGUUCUAUACCUUGUAGUGUUUGUCUUAGUGGUUUAGAUUC [DMSMaPseq_invitro_SARS-CoV-2_Motif_135] , if possible.
-0.164

Also ACAGCCAGUGCUCUCGUCUCCCCUCUGGCUGC [hsa-mir-192] , if possible.
0.236

Also GCACGUAGUGUAGCUAGUCAAUCCAUCAUUGCCUACACUAUGUC , if possible.
0.0633

Also GCUUCUGCGUUAUCUGGAAGG [hsa-mir-4706] , if possible.
-0.131

Also CUGGCUGGUCCAGCCCCUCAGAAG [hsa-mir-6796] , if possible.
0.4

Also AGAUGAGUUUAUGUUUUAUCCAACU [hsa-mir-193b] , if possible.
-0.228

Also GUGAGGUAUUUUAGUAACAUCAC [hsa-mir-125b-2] , if possible.
-0.536

Also GGCUCGUCUGUGUUGCCAAUCGACUC [hsa-mir-1307] , if possible.
0.232

Also GUGAUAGUAAUAAAGUCUCAU [hsa-mir-135a-2] , if possible.
-0.218

Also CAGAGGCUGGCUUUCCAAAACUCUG [hsa-mir-1913] , if possible.
0.266
